Target: T1, Human IL-11 (human, UniProt P20809 22-199); note: test concentration or dose not given here
T1 sequence: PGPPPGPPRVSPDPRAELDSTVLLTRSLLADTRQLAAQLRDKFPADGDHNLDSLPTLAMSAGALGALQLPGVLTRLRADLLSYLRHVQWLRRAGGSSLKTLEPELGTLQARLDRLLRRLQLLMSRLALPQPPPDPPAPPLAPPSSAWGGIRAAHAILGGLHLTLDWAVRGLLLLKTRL
Assay: cell-based or functional assay
readoutKind: MMP2 production, Experiment 2 (human atrial fibroblasts + TGFB1) (ng/mL)
Kindly provide the numeric value in ng/mL only, without the unit symbol.

Ask | Please report MMP2 production, Experiment 2 (human atrial fibroblasts + TGFB1) for the following binder: YU100-B08 (antibody) EVQLVQSGGGVVQPGRSLRLSCAASGFTFSSYGMHWVRQAPGKGLEWVAVISYDGSNKYYADSVKGRFTISRDNSKNTLYLQMNSLRAEDTAVYYCAKIGATDPLDYWGQGTLVTVSSGSASAPKLEEGEFSEARVQSALTQPASVSGSPGQSITISCTGTSSDVGGYNYVSWYQQHPGKVPRLLIYDVSNRPSGVSTRFSGSKSGNTASLTISGLQGEDEAEYYCSSFTSSTTWVFGGGTKLTVL
Reply | 40.6

Ask | Answer with the recorded MMP2 production, Experiment 2 (human atrial fibroblasts + TGFB1) of YU112-D08 (antibody) QVQLVESGGGVVQPGRSLRLSCAASGFTFSSYGMHWVRQAPGKGLEWVAVISYDGSNKYYADSVEGRFTISRDNSKNTLYLQMNSLRAEDTAVYYCAKIGATDPLDYWGQGTLVTVSSGSASAPKLEEGEFSEARVQSALTQPRSVSGSPGQSVTISCTGTISDVGGYNYVSWYQQHPGKAPKLMIYDVTKRPSGVPDRFSGSKSGNTASLTISGLQAEDEAGYYCSSYAGSYTWVFGGGTELTVL only.
Reply | 42.5
